Where do these numbers come from? They come from patent US20120015977A1.

readoutLabel: melting point

Examples from the recorded data:
compound: CCC(C(N)=O)n1c(=O)ccc2cc(Cl)ccc21 (centres unmarked) [Compound 7, 2-(6-chloro-2-oxo-1-quinolyl)butanamide]
melting point: 127.5 to 128.8 °C
--
compound: CCC(C(N)=O)n1c(=O)ccc2cc(Br)ccc21 (centres unmarked) [Compound 2, 2-(6-bromo-2-oxo-1-quinolyl)butanamide]
melting point: 138.5 to 140 °C
--
compound: CCC(C(N)=O)n1c(=O)ccc2cccc(Cl)c21 (centres unmarked) [Compound 6, 2-(8-chloro-2-oxo-1-quinolyl)butanamide]
melting point: 127 to 128 °C

INPUT: For NC(=O)Cn1c(=O)ccc2cc(Cl)ccc21 [Compound 4, 2-(6-chloro-2-oxo-1-quinolyl)acetamide] , what is its reported melting point?
OUTPUT: 159.4 to 160.9 °C

INPUT: Can you handle NC(=O)Cn1c(=O)ccc2cccc(Br)c21 [Compound 3, 2-(8-bromo-2-oxo-1-quinolyl)acetamide] next?
OUTPUT: 158.5 to 160 °C

INPUT: Can you handle CCC(C(N)=O)n1c(=O)ccc2cccc(Br)c21 (centres unmarked) [Compound 8, 2-(8-bromo-2-oxo-1-quinolyl)butanamide] next?
OUTPUT: 124.2 to 125.5 °C

INPUT: Can you handle NC(=O)Cn1c(=O)ccc2cccc(Cl)c21 [Compound 5, 2-(8-chloro-2-oxo-1-quinolyl)acetamide] next?
OUTPUT: 166.5 to 167.6 °C

INPUT: Can you handle NC(=O)Cn1c(=O)ccc2cc(Br)ccc21 [Compound 1, 2-(6-Bromo-2-oxo-1-quinolyl)acetamide] next?
OUTPUT: 256.6 to 257.5 °C
